Ref: ChEMBL document CHEMBL4513216

Test: Toxicity liver stage against HepG2, at 10uM
Format: cell-based
Design: test concentration 10 uM, cell line HepG2-A16-CD81EGFP
Conditions: human, HepG2-A16-CD81EGFP cells; read-out: INHIBITION
Recorded measurements of cytotoxicity at 10 µM, one per entry
Report the value in % with no unit label.

# compound, units_of_measure, recorded_result
rows = [
    ("CCN1CCN(C(=O)NCc2cc[nH]n2)CC1", "%", -12.7),
    ("Cc1cnnn1Cc1nnn2c1CN(Cc1ccccn1)CCC2", "%", 9.73),
    ("Cc1nc(O)ccc1C(=O)NCc1ncoc1C", "%", 5.68),
]

Kindly note the recorded cytotoxicity at 10 µM for CN1CC(c2ccccc2)CC12CCN(C(=O)c1cncc(Cl)c1)CC2 (centres undefined) , which is -12.6

Kindly note the recorded cytotoxicity at 10 µM for COc1ncccc1NC(=O)NC(C)(C)c1ncc(C)s1 , which is -9.44

Kindly note the recorded cytotoxicity at 10 µM for Cc1cnn(CC(C)NCc2ccc(-n3cccn3)cc2)c1 (centres undefined) , which is 1.44

Kindly note the recorded cytotoxicity at 10 µM for c1ccc(N2CCCC3(CCN(Cc4nccs4)C3)C2)nc1 (centres undefined) , which is 6.94

Kindly note the recorded cytotoxicity at 10 µM for CCOc1ccccc1CN(C)C(C)c1nc(-c2cccnc2)no1 (centres undefined) , which is 7.84
